- ASSAY_INFO: chemical genetic growth profiling, strain panel (AID 1159580);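 note: tested at 20 µM; growth read once vehicle control cultures reached saturation at 30 °C; 1 = growth at the plate median or of vehicle wells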
- MEASUREMENT_PARAMETERS: S. cerevisiae deletion strains, growth OD, locus YDL134C, strain PPH21, stronger effect = lower value
About 2,000 (36%) of roughly 5,500 compounds were called active. Inconclusive results (about 18%) are left out. The list shows a part of the results.
MEASURED_ENDPOINT: normalized growth
Please state the value as a number alone, without comment.

Exam item: Returns the measured normalized growth for the input molecule. Input: CCN(CC)CCCC(C)Nc1c2ccc(Cl)cc2nc2ccc(OC)cc12 (stereo not drawn)
Marked response: 0.771

---

This section presents compounds with their documented normalized growth values.
- ASSAY_INFO: chemical genetic growth profiling, strain panel (AID 1159580);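 note: tested at 20 µM; growth read once vehicle control cultures reached saturation at 30 °C; 1 = growth at the plate median or of vehicle wells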
- MEASUREMENT_PARAMETERS: S. cerevisiae deletion strains, growth OD, locus YBR009C, strain hhf1, stronger effect = lower value
Out of some 5,500 compounds screened, about 2,000 (36%) were called active. About 18% were inconclusive and are not listed. The list shows a part of the results.
Keep the answer to the number alone.

Exam item: Tell me the measured normalized growth of NCC1CCC(C(=O)O)CC1 (stereo not drawn) , please.
Marked response: 0.992

Exam item: Return reported normalized growth; argument: `O=C(O)c1cc2ccccc2c(Cc2c(O)c(C(=O)O)cc3ccccc23)c1O`
Marked response: 0.988

From here, focus on the item given below.
Exam item: So what's the measured normalized growth for this one? `COc1cc2c(cc1OC)[C@@H]1C(=O)c3ccc4c(c3O[C@@H]1CO2)C=CC(C)(C)O4`
Marked response: 0.938

---

- ASSAY_INFO: chemical genetic growth profiling, strain panel (AID 1159580);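 note: tested at 20 µM; growth read once vehicle control cultures reached saturation at 30 °C; 1 = growth at the plate median or of vehicle wells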
- MEASUREMENT_PARAMETERS: S. cerevisiae deletion strains, growth OD, locus YDR363W, strain ESC2, stronger effect = lower value
The campaign covered roughly 5,500 compounds. About 2,000 (36%) were called active. Not shown: some 18% with an inconclusive outcome. The list shows a part of the results.
# note: exactly 1 is not below, so it is Not met; use Met for normalized growth strictly under it

A selection of reference data follows.
Exam item: Would you kindly verify if normalized growth of Oc1ccc(C2CNCCc3c2cc(O)c(O)c3Cl)cc1 (stereo not given) is strictly less than 1?
Marked response: Not met

Exam item: Find out if reported normalized growth for `C=CCN1CCc2c(cc(O)c(O)c2Br)[C@@H](c2ccccc2)C1` is less than 1
Marked response: Met

Exam item: Is it true that normalized growth reported for CN1CCc2c(cc(O)c(O)c2Cl)C(c2cccc(Cl)c2)C1 (stereo not given) is less than 1?
Marked response: Met

New cases:
Exam item: Field: below-cutoff. Rule: recorded normalized growth strictly less than 1. Subject: C=CCN1CCc2c(cc(O)c(O)c2Cl)C(c2ccccc2)C1 (stereo not given)
Marked response: Met

Exam item: In plain terms, does `O=c1onc2cnc3ccccc3n12` come in under 1 for normalized growth?
Marked response: Met

---

Property: normalized growth; scope: individual compounds
- ASSAY_INFO: chemical genetic growth profiling, strain panel (AID 1159580);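 note: tested at 20 µM; growth read once vehicle control cultures reached saturation at 30 °C; 1 = growth at the plate median or of vehicle wells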
- MEASUREMENT_PARAMETERS: S. cerevisiae deletion strains, growth OD, locus YBR009C, strain hhf1, stronger effect = lower value
In all, about 5,500 compounds went through this assay and about 2,000 (36%) were called active. Roughly 18% stayed inconclusive and do not appear here. This is one part of the list.

Here is how some compounds turned out for normalized growth.
Exam item: Look at this compound and give its reported normalized growth. Cc1cccc(C)c1OCC(C)N (centres undefined)
Marked response: 1.01 (inactive)

Exam item: Any idea what normalized growth was measured for `CN1CCC(=C2c3ccccc3CC(=O)c3sccc32)CC1` ?
Marked response: 1.02 (inactive)

Exam item: Which normalized growth is listed for `C[N+](C)(C)CCOC(N)=O` ?
Marked response: 0.997 (inactive)

---
Exam item: Find the recorded normalized growth belonging to `CN[C@@H](C)[C@@H](O)c1ccccc1` and report it.
Marked response: 1.02 (inactive)

Exam item: Consider the compound CC(C(=O)O)c1ccc(-c2ccccc2)c(F)c1 (centres undefined) and give its measured normalized growth.
Marked response: 0.984 (inactive)
